tested on: DU-145; assay: Cytotoxicity against human DU145 cells after 72 hrs by CCK8 assay; type: functional, cell-based; settings: DU-145, 72 h
measurementName: pIC50
Units for pIC50: none; it is -log10 of a concentration expressed in mol/L.

Completed entries (count: 3):
[Q] pIC50 for C=C1C(=O)O[C@H]2C[C@@]3(C)O[C@@H]3CC[C@@]3(C)O[C@@H]3C[C@H]12 ?
[A] 6.42

[Q] pIC50 for CC(=O)O[C@H]1C(=O)[C@@]2(C)[C@H]([C@H](OC(=O)c3ccccc3)[C@]3(O)C[C@H](OC(=O)[C@H](O)[C@@H](NC(=O)c4ccccc4)c4ccccc4)C(C)=C1C3(C)C)[C@]1(OC(C)=O)CO[C@@H]1C[C@@H]2O ?
[A] 5.51

[Q] pIC50 for C=C1C(=O)O[C@@H]2C[C@]3(C)[C@@H](CCC(C)O)C[C@@]4(C(=O)O[C@@H]5C[C@@H]6[C@@H](CC[C@H](C)O)[C@@H]6C[C@@H]54)[C@@H]3C[C@H]12 (some centres undefined) ?
[A] 6.51

Next molecule, pIC50 to be filled in.
[Q] pIC50 for C=C1C(=O)O[C@H]2C[C@@H](C)[C@@H]3CC[C@H](O)[C@@]3(C)C[C@H]12 [PSEUDOGUAIANOLIDE] ?
[A] 5.51

* * *

# pIC50 per record follows
system: MOLT-4; assay: Cytotoxicity against human MOLT4 cells after 72 hrs by CCK8 assay; assay type: functional, cell-based; details: MOLT-4, 72 h
Units for pIC50: none; it is -log10 of a concentration expressed in mol/L.

[Q] pIC50 for CC(=O)O[C@H]1C(=O)[C@@]2(C)[C@H]([C@H](OC(=O)c3ccccc3)[C@]3(O)C[C@H](OC(=O)[C@H](O)[C@@H](NC(=O)c4ccccc4)c4ccccc4)C(C)=C1C3(C)C)[C@]1(OC(C)=O)CO[C@@H]1C[C@@H]2O [PACLITAXEL] ?
[A] 5.57

[Q] pIC50 for C=C1C(=O)O[C@H]2C[C@@H](C)[C@@H]3CC[C@H](O)[C@@]3(C)C[C@H]12 [PSEUDOGUAIANOLIDE] ?
[A] 5.26

[Q] pIC50 for C=C1C(=O)O[C@H]2C[C@@]3(C)O[C@@H]3CC[C@@]3(C)O[C@@H]3C[C@H]12 ?
[A] 5.92

Next molecule, pIC50 to be filled in.
[Q] pIC50 for C=C1C(=O)O[C@@H]2C[C@]3(C)[C@@H](CCC(C)O)C[C@@]4(C(=O)O[C@@H]5C[C@@H]6[C@@H](CC[C@H](C)O)[C@@H]6C[C@@H]54)[C@@H]3C[C@H]12 (some centres undefined) ?
[A] 5.89

* * *

system: NCI-H1975; assay: Cytotoxicity against human NCI-H1975 cells after 72 hrs by CCK8 assay; assay type: functional, cell-based; details: NCI-H1975, 72 h
# IC50 per record follows
Give just the number in µM; leave the unit off.

[Q] IC50 for C=C1C(=O)O[C@H]2C[C@@]3(C)O[C@@H]3CC[C@@]3(C)O[C@@H]3C[C@H]12 ?
[A] 5.4

[Q] IC50 for C=C1C(=O)O[C@H]2C[C@@H](C)[C@@H]3CC[C@H](O)[C@@]3(C)C[C@H]12 [PSEUDOGUAIANOLIDE] ?
[A] 13

[Q] IC50 for C=C1C(=O)O[C@@H]2C[C@]3(C)[C@@H](CCC(C)O)C[C@@]4(C(=O)O[C@@H]5C[C@@H]6[C@@H](CC[C@H](C)O)[C@@H]6C[C@@H]54)[C@@H]3C[C@H]12 (some centres undefined) ?
[A] 1.4

Others:
[Q] IC50 for CC(=O)O[C@H]1C(=O)[C@@]2(C)[C@H]([C@H](OC(=O)c3ccccc3)[C@]3(O)C[C@H](OC(=O)[C@H](O)[C@@H](NC(=O)c4ccccc4)c4ccccc4)C(C)=C1C3(C)C)[C@]1(OC(C)=O)CO[C@@H]1C[C@@H]2O ?
[A] 2.8

* * *

system: MCF7; test: Cytotoxicity against human MCF7 cells after 72 hrs by CCK8 assay; format: functional, cell-based; conditions: MCF7, 72 h
measurementName: IC50 (µM)
Give just the number in µM; leave the unit off.

Completed entries (count: 2):
[Q] IC50 for C=C1C(=O)O[C@H]2C[C@@H](C)[C@@H]3CC[C@H](O)[C@@]3(C)C[C@H]12 [PSEUDOGUAIANOLIDE] ?
[A] 11

[Q] IC50 for C=C1C(=O)O[C@H]2C[C@@]3(C)O[C@@H]3CC[C@@]3(C)O[C@@H]3C[C@H]12 ?
[A] 4.1

Next compound, IC50 to be filled in.
[Q] IC50 for C=C1C(=O)O[C@@H]2C[C@]3(C)[C@@H](CCC(C)O)C[C@@]4(C(=O)O[C@@H]5C[C@@H]6[C@@H](CC[C@H](C)O)[C@@H]6C[C@@H]54)[C@@H]3C[C@H]12 (stereo partly drawn) ?
[A] 3.3

* * *

# IC50 per record follows
test system: Influenza A virus; test: Antiviral activity against Influenza A virus H1N1 infected in MDCK cells assessed as protection against virus-induced cytopathic effect after 48 hrs by crystal violet staining; type: functional, organism-based
Give just the number in µM; leave the unit off.

Completed entries (count: 3):
[Q] Look up IC50 with Influenza A virus for this compound: CCOC(=O)C1=C[C@@H](OC(CC)CC)[C@H](NC(C)=O)[C@@H](N)C1 [OSELTAMIVIR]
[A] 0.025

[Q] Look up IC50 with Influenza A virus for this compound: C=C1C(=O)O[C@@H]2C[C@]3(C)[C@@H](CCC(C)O)C[C@@]4(C(=O)O[C@@H]5C[C@@H]6[C@@H](CC[C@H](C)O)[C@@H]6C[C@@H]54)[C@@H]3C[C@H]12 (some centres undefined)
[A] 15.9

[Q] Look up IC50 with Influenza A virus for this compound: C=C1C(=O)O[C@H]2C[C@@H](C)[C@@H]3CC[C@H](O)[C@@]3(C)C[C@H]12 [PSEUDOGUAIANOLIDE]
[A] 29.3

Next compound, IC50 to be filled in.
[Q] Look up IC50 with Influenza A virus for this compound: C=C1C(=O)O[C@H]2C[C@@]3(C)O[C@@H]3CC[C@@]3(C)O[C@@H]3C[C@H]12
[A] 10.8

* * *

tested on: HeLa; assay: Cytotoxicity against human HeLa cells after 72 hrs by CCK8 assay; assay type: functional, cell-based
measurementName: IC50 (nM)
Give just the number in nM; leave the unit off.

Completed entries (count: 2):
[Q] IC50 for C=C1C(=O)O[C@H]2C[C@@H](C)[C@@H]3CC[C@H](O)[C@@]3(C)C[C@H]12 [PSEUDOGUAIANOLIDE] ?
[A] 6000

[Q] IC50 for C=C1C(=O)O[C@H]2C[C@@]3(C)O[C@@H]3CC[C@@]3(C)O[C@@H]3C[C@H]12 ?
[A] 1000

Others:
[Q] IC50 for C=C1C(=O)O[C@@H]2C[C@]3(C)[C@@H](CCC(C)O)C[C@@]4(C(=O)O[C@@H]5C[C@@H]6[C@@H](CC[C@H](C)O)[C@@H]6C[C@@H]54)[C@@H]3C[C@H]12 (stereo partly drawn) ?
[A] 610

* * *

assay: Cytotoxicity against human SGC7901 cells after 72 hrs by CCK8 assay; assay type: functional, cell-based; details: SGC-7901, 72 h
measurementName: IC50 (µM)
Give just the number in µM; leave the unit off.

Completed entries (count: 2):
[Q] IC50 for C=C1C(=O)O[C@H]2C[C@@H](C)[C@@H]3CC[C@H](O)[C@@]3(C)C[C@H]12 [PSEUDOGUAIANOLIDE] ?
[A] 22

[Q] IC50 for CC(=O)O[C@H]1C(=O)[C@@]2(C)[C@H]([C@H](OC(=O)c3ccccc3)[C@]3(O)C[C@H](OC(=O)[C@H](O)[C@@H](NC(=O)c4ccccc4)c4ccccc4)C(C)=C1C3(C)C)[C@]1(OC(C)=O)CO[C@@H]1C[C@@H]2O ?
[A] 9.8

Others:
[Q] IC50 for C=C1C(=O)O[C@H]2C[C@@]3(C)O[C@@H]3CC[C@@]3(C)O[C@@H]3C[C@H]12 ?
[A] 6.4

[Q] IC50 for C=C1C(=O)O[C@@H]2C[C@]3(C)[C@@H](CCC(C)O)C[C@@]4(C(=O)O[C@@H]5C[C@@H]6[C@@H](CC[C@H](C)O)[C@@H]6C[C@@H]54)[C@@H]3C[C@H]12 (some centres undefined) ?
[A] 0.71
